- Test system: MS2 coat protein
- Assay protocol: apparent KD of MS2 coat protein, switch ON state; designed switch direction (-1 OFF switch, 1 ON switch): 1; higher = weaker reporter binding
- Conditions used: FMN input: 0 or 200 uM; Eterna round: R93 (includes R88 designs)
Measurement kind: apparent KD of MS2 coat protein (nM)
The reply should contain only the number, in nM.

>  <Input sequence>
AAGAAACAUGAGGAUCACCCAUGUGAGAAUAACACAGGAUAUGCAAAAGAAAGAAAGAAAGCAGAAGGGUGAAGAA [Mat - Same State 1 - Tesla mod - 53]

>  <apparent KD of MS2 coat protein, nM>
23.3

$$$$
>  <Input sequence>
UACACGCGGGCGCAGGAUAUGUCGCUGGUGACAUGAGGAUCACCCAUGUAUACCAUUGCGGUUGAGCAGAAGGGUGAGAAGCGUG [Raanlaza]

>  <apparent KD of MS2 coat protein, nM>
20.4

$$$$

As a next step, examine the sequence that follows.
Query block: Fill in reported apparent KD of MS2 coat protein for this entry: `AGAAAUAAAGCAGAGGAUAUCCAAAAGAAAACAUGAGGAUCACCCAUGUAAAAGAAAAUAAAAUGGGAGAAGGCUGCAAAUAAAG`
Result block: 18.5

Recorded values, source the supplement of paper PMC9170038.
